The following substances are shown together with reported % cells in cell cycle phase: G2/M values.
test system: HeLa cells; assay: Cell cycle assay in HeLa cells; type: cell-based, human; conditions: HeLa cells, 150 nM oligomeric compound, 48 hours after treatment; relative to untreated control (UTC=100)
In the oligonucleotide strings, read from the 5' end, every base follows the letter of its sugar. An asterisk marks phosphorothioate; unmarked linkages are phosphodiester. Other units and linkages are bracketed, terminal groups are in braces. A string of capitals states the bases alone. e = 2'-O-(2-methoxyethyl) (MOE); [5mC] = 5-methylcytosine; d = 2'-deoxy (DNA)
Write the number in % without appending the unit.

Here are 7 substances together with their reported answers.
327906 (antisense eT*e[5mC]*eA*eT*eA*eG*e[5mC]*e[5mC]*e[5mC]*eT*eG*eT*eA*e[5mC]*eA*eA*eT*eG*e[5mC]*eT*eG*e[5mC]*eT) [compound 327906]; 103
338756 (antisense TGCCCTGCTCAGAGCCCTAG; all 2'-MOE, all phosphorothioate, methylation of C not given here) [compound 338756]; 100
328111 (antisense eT*e[5mC]*e[5mC]*eG*eA*eG*eT*e[5mC]*eG*eG*eA*eG*eG*eA*eG*eG*eA*eG*eG*eA*eA) [compound 328111]; 119
340350 (antisense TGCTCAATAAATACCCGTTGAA; all 2'-MOE, all phosphorothioate, methylation of C not given here) [compound 340350]; 134
328759 (antisense eG*eA*eG*eG*eG*dA*dT*dT*dG*dT*dA*dT*dG*dA*dA*e[5mC]*eA*eT*e[5mC]*eT) [compound 328759]; 343
328397 (antisense eT*eT*eG*eA*eT*d[5mC]*d[5mC]*dA*dT*dA*dT*dG*d[5mC]*dA*dA*e[5mC]*eA*eA*eG*eG) [compound 328397]; 109
328396 (antisense e[5mC]*eT*eG*eG*eT*dT*dG*dG*dG*dT*dA*dT*dG*dA*dG*eA*e[5mC]*eA*eG*eA) [compound 328396]; 119

Then this substance:
Endpoint output: % cells in cell cycle phase: G2/M of 338690 (antisense TAGACAAAAACAGACTCTGA; all 2'-MOE, all phosphorothioate, methylation of C not given here) [compound 338690] . Value?
112
